- System: lambsquarters
- procedureText: Test C preemergence
- Assay type: in vivo, Chenopodium album
- reportedConditions: preemergence, 125 g ai/ha; 13 to 15 days; scale 0 to 100, 0 = no effect, 100 = complete control
# key: entry, value: Plant response rating, Lambsquarters
measurementLabel: Plant response rating, Lambsquarters

# compound, recordedValue
measured = [
    ("CCc1cc(C(=O)NCC(F)(F)F)nn1Cc1ccnc(Br)c1 [Compound 224]", 100),
    ("CCOc1cc(C(=O)NOC(C)C)nn1Cc1ccnc(C(F)(F)F)c1 [Compound 153]", 98),
    ("CCONC(=O)c1cc(CC)n(Cc2ccnc(OC(F)F)c2)n1 [Compound 131]", 100),
    ("CCCNC(=O)c1cc(OCC)n(Cc2ccnc(OC(F)F)c2)n1 [Compound 136]", 98),
]

----------
- System: barnyardgrass
- procedureText: Test C preemergence
- Type: in vivo, Echinochloa crus-galli
- reportedConditions: preemergence, 125 g ai/ha; 13 to 15 days; scale 0 to 100, 0 = no effect, 100 = complete control
- Excerpt: […]
The compounds listed here are annotated with their Plant response rating, Barnyardgrass.
measurementLabel: Plant response rating, Barnyardgrass

# compound, tgt, recordedValue
rows = [
    ("CCCc1cc(C(=O)NOC(C)C)nn1Cc1cc(C(F)(F)F)nn1C [Compound 203]", "barnyardgrass", 100),
    ("CCNC(=O)c1cc(CC)n(Cc2cc(C(F)(F)F)nn2C)n1 [Compound 154]", "barnyardgrass", 100),
    ("CCCc1cc(C(=O)NCC(F)(F)F)nn1Cc1ccnc(OC(F)F)c1 [Compound 127]", "barnyardgrass", 95),
    ("CCCNC(=O)c1cc(OCC)n(Cc2ccnc(OC(F)F)c2)n1 [Compound 136]", "barnyardgrass", 100),
    ("CCc1cc(C(=O)NCC(F)(F)F)nn1Cc1ccnc(Br)c1 [Compound 224]", "barnyardgrass", 100),
    ("CCCc1cc(C(=O)NC(C)C)nn1Cc1cc(C(F)(F)F)nn1C [Compound 201]", "barnyardgrass", 100),
    ("CCNC(=O)c1cc(CCF)n(Cc2ccnc(C(F)(F)F)c2)n1 [Compound 178]", "barnyardgrass", 100),
    ("CCOc1cc(C(=O)NCC(F)(F)F)nn1Cc1ccnc(OC(F)F)c1 [Compound 128]", "barnyardgrass", 98),
]

----------
- Tested on: morningglory
- procedureText: Test A preemergence
- Type: in vivo, Ipomoea spp.
- reportedConditions: Preemergence, 1000 g ai/ha; 0 to 100 scale, 0 no effect, 100 complete control
Please assign Not fulfilled whenever Morningglory plant response rating is at or above 20, and Fulfilled whenever it is below.

# recordSmiles, tgt, labelValue
data = [
    ("CCc1cc(C(=O)NC(C)(C)C)nn1Cc1cccc(OC(F)(F)F)c1", "morningglory", "Fulfilled"),
    ("CCCNC(=O)c1cc(CC)n(Cc2cccc(OC(F)(F)F)c2)n1", "morningglory", "Not fulfilled"),
    ("O=C(NCC(F)(F)F)c1cc(C2CC2)n(Cc2cccc(OC(F)(F)F)c2)n1", "morningglory", "Fulfilled"),
    ("CCCNC(=O)c1cc(C2CC2)n(Cc2cccc(OC(F)(F)F)c2)n1", "morningglory", "Fulfilled"),
    ("CCc1cc(C(=O)NCC2CC2)nn1Cc1cccc(OC(F)(F)F)c1", "morningglory", "Not fulfilled"),
    ("CCCNC(=O)c1cc(SC)n(Cc2cccc(C(F)(F)F)c2)n1", "morningglory", "Fulfilled"),
    ("CCCNC(=O)c1cc(CCC)n(Cc2cccc(OC(F)(F)F)c2)n1", "morningglory", "Not fulfilled"),
    ("CCc1cc(C(=O)NC(C)C)nn1Cc1cccc(C(F)(F)F)c1", "morningglory", "Not fulfilled"),
]
